Experimental Readout: melting point

Please review the following examples before continuing.
[[record]]
structure_string = "Cc1ccc(NC(=O)Cn2cc(COc3ccnc4cc(Cl)ccc34)nn2)cc1Nc1nccc(-c2cccnc2)n1"
result = "245 to 247 °C"

[[record]]
structure_string = "Cc1ccc(Nc2ccnc3ccccc23)cc1Nc1nccc(-c2cccnc2)n1"
result = "153 to 157 °C"

[[record]]
structure_string = "Cc1ccc(NC(=O)Cn2cc(CCCOc3ccnc4cc(Cl)ccc34)nn2)cc1Nc1nccc(-c2cccnc2)n1"
result = "145 to 146 °C"

[[record]]
structure_string = "CCOC(=O)c1cnc2ccccc2c1Nc1ccc(C)c(Nc2nccc(-c3cccnc3)n2)c1"
result = "208 to 211 °C"

[[record]]
structure_string = "Cc1ccc(-n2cc(COc3ccnc4cc(Cl)ccc34)nn2)cc1Nc1nccc(-c2cccnc2)n1"
result = "187 to 188 °C"

[[record]]
structure_string = "Cc1ccc(Nc2ccc3cccc(Cl)c3n2)cc1Nc1nccc(-c2cccnc2)n1"
result = "237 to 239 °C"


Now, please, on to the next compound.
The recorded melting point for "Cc1ccc(-n2cc(CCCOc3ccnc4cc(Cl)ccc34)nn2)cc1Nc1nccc(-c2cccnc2)n1" is 107 to 108 °C
